# Test system: SK-MEL-2 melanoma
Labels: T for active, F for inactive

smilesCode: CCN1CCN(CC(=O)Nc2nc3ccc(NCc4ccc(C)cc4)cc3s2)CC1
qualitativeLabel: F
--
smilesCode: Cc1ccc(-c2c3c(N)nc(-c4ccncc4)nc3nc3c2c(C)nn3-c2ccccc2)cc1
qualitativeLabel: F
--
smilesCode: N#Cc1ccc(N2Cc3cc(Cl)ccc3OC3=C2C(=O)N(Cc2ccc(F)cc2)C3=O)cc1
qualitativeLabel: T
--
smilesCode: Cc1ccc(-n2nnc3c(sc4ccccc43)c2=O)cc1
qualitativeLabel: F
--
smilesCode: C=C1C(=O)O[C@H]2[C@H]1CC/C(COC(=O)c1cccc3ccccc13)=C\CC[C@@]1(C)O[C@@H]21
qualitativeLabel: F

These measurements were taken from PubChem BioAssay (NCI).
